For each entry below, report its self-cleavage value.
B1: Osa-1-4 twister ribozyme (parent)
chain: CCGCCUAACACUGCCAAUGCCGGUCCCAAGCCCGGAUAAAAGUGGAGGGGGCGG

- Variants of: B1
- Method description: self-cleavage, relative activity (ratio to wild type); higher = more cleavage; co-transcriptional
Numbers only.

Examples from the recorded data:
Sequence entry	self-cleavage
CCGCCUUACACUGCCAAUGCCGGUCCCAAGCCCGGAUAAAAGUGGAGGGCGCGG [A7U G50C]	0.06
CCGCCUAACACUCCCAAUGCCGGUCCCAAGCCCGGAUAAAAGUCGAGGGGGCGG [G13C G44C]	0.03
CCGCCUAACACUGCCAAUGUCGGUCCCAAGCCCGGAUAAAAGCGGAGGGGGCGG [C20U U43C]	0.49
CCGCCUAACACUGCCAAUGCCGGUCCCAAGCCCGGACAACAGUGGAGGGGGCGG [A40C U37C]	0.07
CCGCCUAACACUGCCAAUGCCGGUCCCAAGCCCGGAUCAAAGUGGAGGGGGCCG [A38C G53C]	0.08
CCGCCUAACACUGCGAAUGCCGGUCCCAAGCACGGAUAAAAGUGGAGGGGGCGG [C15G C32A]	0.05

# batch: return self-cleavage for each of the 2 variants below
1. CCGCCUAACAAUGCCAAUGCCGGUCACAAGCCCGGAUAAAAGUGGAGGGGGCGG [C11A C26A]
2. CCGCCUAACACUGCAAAUGCCGGUACCAAGCCCGGAUAAAAGUGGAGGGGGCGG [C15A C25A]

Result:
1: 0.06; 2: 0.07
